B1: EEHEE_rd3_0130 (parent)
chain: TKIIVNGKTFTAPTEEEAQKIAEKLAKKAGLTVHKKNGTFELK

variants of: B1; test: folding stability dG (cDNA display proteolysis); higher = more stable; settings: PBS, room temperature
measuredAttribute: folding stability dG

Return folding stability dG (reported value) for this variant: TKIIVNGKTFTAPTEEEAQKIAEKLAKKAGLWVHKKNGTFELK [T32W] -0.409 kcal/mol

Give recorded folding stability dG. TKIIVNGKTFTAPTEEEAQKIAEKLAKKAGLTVHKKNGDFELK [T39D] 0.863 kcal/mol

Look up and report measured folding stability dG for this entry: TKIIVNGKTFTAPTFEEAQKIAEKLAKKAGLTVHKKNGTFELK [E15F] 1 kcal/mol

Output folding stability dG of TKIIVNGKTFTAPTEEEAQKIAEKLHKKAGLTVHKKNGTFELK [A26H] -0.447 kcal/mol

Complete the entry with folding stability dG for TKIIVNGKTMTAPTEEEAQKIAEKLAKKAGLTVHKKNGTFELK [F10M] 0.05 kcal/mol

Item TKIIVNNKTFTAPTEEEAQKIAEKLAKKAGLTVHKKNGTFELK [G7N] : provide folding stability dG 0.208 kcal/mol

Give the value of folding stability dG reported for the following: TKIIVNGKTFTAPTEEEAQKIAEKLAKKAGLTMHKKNGTFELK [V33M] 0.559 kcal/mol

Return folding stability dG (reported value) for this variant: TPIIVNGKTFTAPTEEEAQKIAEKLAKKAGLTVHKKNGTFELK [K2P] 0.169 kcal/mol

Identify the reported folding stability dG for the following entry. TKIIVNGKTFTGPTEEEAQKIAEKLAKKAGLTVHKKNGTFELK [A12G] 0.091 kcal/mol

Complete the entry with folding stability dG for TKIIVNGKTFTAPTEEEAQKICEKLAKKAGLTVHKKNGTFELK [A22C] 0.374 kcal/mol

Give reported folding stability dG value for TKIIVNGKTFTAPTEEEAQKIAEKLAKKAGLTVLKKNGTFELK [H34L] 0.902 kcal/mol

Fill in reported folding stability dG for this entry: TKIIVNGKTFTAPTEEEAQKIAEKLAKKAGLTVHKKNGTFEGK [L42G] 0.249 kcal/mol

// Input: TKIIVNGKTFTVPTEEEAQKIAEKLAKKAGLTVHKKNGTFELK [A12V] . Output its folding stability dG only. 1.34 kcal/mol

Specify measured folding stability dG for TKIIRNGKTFTAPTEEEAQKIAEKLAKKAGLTVHKKNGTFELK [V5R] . -0.49 kcal/mol

Please give measured folding stability dG of the following entry: TKIIVNGKTFTAPTEEEAQKIAEKLAKKAGLTVHQKNGTFELK [K35Q] 0.41 kcal/mol

Answer with the recorded folding stability dG of TKIIVNGKTFTAPTEEEAQKIAEKLAKKAGLTVEKKNGTFELK [H34E] only. 0.679 kcal/mol

Tell me measured folding stability dG for TKIIDNGKTFTAPTEEEAQKIAEKLAKKAGLTVHKKNGTFELK [V5D] please. -0.878 kcal/mol

Query folding stability dG for TKIEVNGKTFTAPTEEEAQKIAEKLAKKAGLTVHKKNGTFELK [I4E] -0.066 kcal/mol

Please list folding stability dG recorded for the variant TKIIVNGKTFTAHTEEEAQKIAEKLAKKAGLTVHKKNGTFELK [P13H] 0.651 kcal/mol

Return folding stability dG (reported value) for this variant: TKIIVNGKTFTAPTEEEAQKIAEKLAKKAKLTVHKKNGTFELK [G30K] 0.272 kcal/mol
